These entries and their values trace back to ChEMBL document CHEMBL2448688.

# Protocol summary: in vitro
# Recorded conditions: human, microsomes, t (1 / 2)
Measurement name: half-life (min)

Below are worked cases with known answers.
CCOC(COc1ccc2cc(Br)ccc2c1)Cn1ccnc1.O=CO (centres undefined) :: 120
CCN(Cc1cccnc1)c1ccc(-c2ccc(F)cc2)cc1F :: 21.5
CN(C)S(=O)(=O)c1ccc(-n2ccnc2)c(NC(=O)c2cnc(-c3ccccc3)s2)c1 :: 22

A: CS(=O)(=O)N(Cc1cnc[nH]1)c1ccc(-c2nc3ccccc3s2)cc1
B: N#Cc1ccc(-n2ccnc2)c(NC(=O)c2cnc(-c3ccccc3)nc2)c1
C: CO/N=C(\C)c1ccc(-n2ccnc2)c(NC(=O)c2ccc(-c3ccccn3)s2)c1
D: CCN(Cc1cccnc1)c1cc(F)cc(-c2nc3ccccc3s2)c1
E: CO/N=C(\C)c1ccc(-n2ccnc2)c(NC(=O)c2ccc(-c3cccs3)nc2)c1
Req: Highest half-life first, then in falling order down to the smallest. Quick reminder: the answer is the labels in the order asked.
Resp: B, C, A, E, D

A: CO/N=C(\C)c1ccc(-n2ccnc2)c(NC(=O)c2cnn(-c3ccccn3)c2)c1
B: CCN(c1ccccc1)S(=O)(=O)c1ccc(NC(=O)CN(C)C2CCN(C)CC2)c(Cl)c1.Cl
Req: Two entries are listed, A and B . Which one carries the higher half-life? Write down the label of the entry you select.
Resp: A

###

# Protocol summary: in vitro
# Recorded conditions: human, microsomes
Measurement name: microsomal CLint (µL/min/mg)

CCN(Cc1cccnc1)c1cccc(-c2nc3ccccc3s2)c1 :: 159

I: O=C(C1CC1)N(Cc1cccnc1)c1cccc(-c2nc3ccccc3s2)c1
II: Cc1ccc(-n2ccnc2)c(NC(=O)c2cnc(-c3ccccc3)s2)c1
Req: Please indicate which entry, I or II , has the lower recorded microsomal CLint value. Write down the label of the entry you select.
Resp: II
(II: 109 µL/min/mg, I: 380 µL/min/mg)

###

# Protocol summary: in vitro
# Recorded conditions: human, microsomes, EH
Measurement name: hepatic extraction ratio

Below are worked cases with known answers.
CS(=O)(=O)N(Cc1c[nH]cn1)c1ccc(-c2ccc(F)cc2)cc1F :: 0.52
CCN(c1ccccc1)S(=O)(=O)c1ccc(Cl)c(NC(=O)c2ccc3c(c2)CCNC3)c1 :: 0.943
CCN(Cc1cccnc1)c1cccc(-c2nc3ccccc3s2)c1 :: 0.86
CO/N=C(\C)c1ccc(-n2ccnc2)c(NC(=O)c2ccc(-c3ccccn3)s2)c1 :: 0.54
CCOC(COc1ccc2cc(Br)ccc2c1)Cn1ccnc1.O=CO (stereo not given) :: 0.36
CC(=O)N(Cc1c[nH]cn1)c1ccc(-c2nc3ccccc3s2)cc1 :: 0.35
CCN(Cc1cccnc1)c1ccc(-c2ccc(F)cc2)cc1F :: 0.799
CCOC(=O)c1ccc(-n2ccnc2)c(NC(=O)c2cnc(-c3ccccc3)nc2)c1 :: 0.38
CCS(=O)(=O)N(Cc1cccnc1)c1cccc(-c2nc3ccccc3s2)c1 :: 0.93
O=C(Nc1ccccc1-n1ccnc1)c1cnc(-c2ccccc2)nc1 :: 0.4

P: CCN(CC)S(=O)(=O)c1ccc(-n2ccnc2)c(NC(=O)c2cnc(-c3ccccc3)nc2)c1
Q: N#Cc1ccc(-n2ccnc2)c(NC(=O)c2cnc(-c3ccccc3)nc2)c1
Req: Please indicate which entry, P or Q , has the lower recorded hepatic extraction ratio value. Write down the label of the entry you select.
Resp: Q

1: CCS(=O)(=O)N(Cc1cccnc1)c1cncc(-c2nc3ccccc3s2)c1
2: CO/N=C(\C)c1ccc(-n2ccnc2)c(NC(=O)c2cnn(-c3ccccn3)c2)c1
Req: Please indicate which entry, 1 or 2 , has the lower recorded hepatic extraction ratio value. Write down the label of the entry you select.
Resp: 2
(2: 0.38, 1: 0.965)

A: CO/N=C(\C)c1ccc(-n2ccnc2)c(NC(=O)c2ccc(-c3cccs3)nc2)c1
B: CN(CC(O)COc1ccc2cc(Br)ccc2c1)C1CCCCC1 (stereo not given)
Req: Two entries are listed, A and B . Which one carries the higher hepatic extraction ratio? Write down the label of the entry you select.
Resp: A
